Tested on: Bacillus Subtilis ATCC 6633
Format: cell-based
Bridge positions count the residues as written; N and C are the ends. Square brackets hold non-standard residues; d marks the D form. Peptide text beside a SMILES is read from it. ξ: configuration not given here. dNMeF = CN[C@H](Cc1ccccc1)C(=O)O; Ile(3ξ) = CCC(C)[C@H](N)C(=O)O
Give measured MIC for each item. Keep answers brief.

Check out these entries, answers already filled in.
[in] Provide the documented MIC with Bacillus Subtilis ATCC 6633 as the system for CC[C@@H](C)[C@@H](NC(=O)[C@@H](CCCNC(=N)N)NC(=O)[C@H](CCCNC(=N)N)NC(=O)[C@@H](NC(=O)[C@@H](Cc1ccccc1)NC)[C@@H](C)CC)C(=O)N[C@H](C(=O)N[C@@H](CO)C(=O)N[C@H]1C(=O)N[C@@H](CCCNC(=N)N)C(=O)N[C@@H](CC(C)C)C(=O)N[C@@H]([C@@H](C)CC)C(=O)O[C@H]1C)[C@@H](C)CC [Compound 31, Arg3-D-Arg4-Arg9-Leu10-teixobactin] (H-[dNMeF]IR[dR][dI]IS[dT]RLI; ester 8-C)
[out] <0.0625 µg/mL

[in] Now consider CCC(C)[C@@H]1NC(=O)[C@H](C)NC(=O)[C@H](NC(=O)[C@H](CO)NC(=O)[C@@H](NC(=O)[C@H](NC(=O)[C@@H](CCCNC(=N)N)NC(=O)[C@H](CO)NC(=O)[C@@H](NC(=O)[C@@H](Cc2ccccc2)NC)[C@@H](C)CC)[C@H](C)CC)[C@@H](C)CC)[C@H](C)OC(=O)[C@H]([C@@H](C)CC)NC1=O (stereo partly drawn) [Compound 33, D-Arg4-Ile10-teixobactin] and answer again.
[out] <0.0625 µg/mL

# next molecule below
[in] Provide the documented MIC with Bacillus Subtilis ATCC 6633 as the system for CCC(C)[C@@H]1NC(=O)[C@H](C)NC(=O)[C@H](NC(=O)[C@H](CO)NC(=O)[C@@H](NC(=O)[C@H](NC(=O)[C@@H](CCC(N)=O)NC(=O)[C@H](CCCNC(=N)N)NC(=O)[C@@H](NC(=O)[C@@H](Cc2ccccc2)NC)[C@@H](C)CC)[C@H](C)CC)[C@@H](C)CC)[C@H](C)OC(=O)[C@H]([C@@H](C)CC)NC1=O (stereo partly drawn) [Compound 32, Arg3-Ile10-teixobactin] (H-[dNMeF]IR[dQ][dI]IS[dT]A[Ile(3ξ)]I; ester 8-C)
[out] <0.0625 µg/mL
